# assaySummary: acute lethality (LD50) in mice
# Format: in vivo
# conditionNotes: mouse, in vivo, ip, intraperitoneal; mortality within 72 hours; read-out: LD50, intraperitoneal
observable: LD50 at 72 h (mg/kg)

[[record]]
compound = "COc1cc2c(cc1OC)-c1c(OC)c(OC)cc3c1C(C2)N(C)CC3 (racemic) [d,l-glaucine phosphate]"
readingunit = "mg/kg"
readoutnumber = 178


* * *

# assaySummary: acute lethality (LD50) in mice
# Assay type: in vivo
# conditionNotes: mouse, in vivo, po; mortality within 72 hours; read-out: LD50, oral
observable: LD50 at 72 h

[[record]]
compound = "COc1cc2c(cc1OC)-c1c(OC)c(OC)cc3c1C(C2)N(C)CC3 (racemic) [d,l-glaucine phosphate]"
result = "≥ 681 mg/kg"


* * *

Recorded concentration at 0.25 h for the following molecules
# assaySummary: plasma concentration levels of glaucine in guinea pigs
# Format: in vivo
# conditionNotes: guinea pig, plasma, po; 15 minutes after dosing; l-isomer orally 5 mg/kg; read-out: plasma glaucine level after 15 minutes
Where a name gives a salt, the structure may show the parent alone.
observable: concentration at 0.25 h

[[record]]
molecule = "COc1cc2c(cc1OC)-c1c(OC)c(OC)cc3c1[C@@H](C2)N(C)CC3 [l-glaucine hydrobromide]"
result = "~40 ng/mL"

[[record]]
molecule = "COc1cc2c(cc1OC)-c1c(OC)c(OC)cc3c1[C@H](C2)N(C)CC3 [d-glaucine hydrobromide]"
result = "~50 ng/mL"


* * *

# assaySummary: plasma concentration levels of glaucine in guinea pigs
# Type: in vivo
# conditionNotes: guinea pig, plasma, po; orally 5 mg/kg; end of 90 minutes test period; read-out: plasma glaucine level at end of test period
Counter-ions that a name gives are not always drawn.
observable: concentration at 1.5 h

[[record]]
molecule = "COc1cc2c(cc1OC)-c1c(OC)c(OC)cc3c1[C@@H](C2)N(C)CC3 [l-glaucine hydrobromide]"
observable = "concentration at 1.5 h"
result = "~200 ng/mL"


* * *

# assaySummary: plasma concentration levels of glaucine in guinea pigs
# Assay type: in vivo
# conditionNotes: guinea pig, plasma, po; orally 5 mg/kg; one hour after administration; read-out: peak plasma glaucine level
Structures can show the parent of a compound that is named as a salt.
observable: Cmax

[[record]]
compound = "COc1cc2c(cc1OC)-c1c(OC)c(OC)cc3c1[C@@H](C2)N(C)CC3 [l-glaucine hydrobromide]"
result = "> 350 ng/mL"

